System: A375 cells (malignant melanoma)
Assay: Inhibition of cancer cell proliferation, A375 (CellTiterGlo, 72 hours)
Assay type: cell-based
Conditions: Homo sapiens, A-375
Procedure: Measurement of Inhibition of Cancer Cell Proliferation (A375/Malignant Melanoma) The following protocol used an A375 cell line, which cell line is a model for malignant melanoma. […] A white sealing tape was applied to the bottom of the plate, and the plate was read in a luminescence plate reader. […] 50 μl CellTiterGlo was added per well, and the plate was read in a luminescence plate reader after 10 min. […] The percent of inhibition, using untreated control as 100% growth, was then calculated. […]
PROPERTY: GI50

Solved cases (6 shown):
> print(dat)
                                   molecule                system.under.test    readout.value
1  C=CC(=O)Nc1cc(C)ccc1Nc1nc(Nc2cc(NC3CC3)nc(OC)c2)ncc1C(F)(F)F [Compound I-337]  A375 cells (malignant melanoma)         < 0.1 µM
2  C=CC(=O)Nc1cc(C)ccc1Nc1nc(Nc2nc(OC)ncc2C#N)ncc1C(F)(F)F [Compound I-346]  A375 cells (malignant melanoma)  0.101 to 0.5 µM
3  C=CC(=O)Nc1cc(C)ccc1Nc1nc(NC2CCC(=O)CC2)ncc1C(F)(F)F [Compound I-38]  A375 cells (malignant melanoma)  0.101 to 0.5 µM
4  C=CC(=O)Nc1ccccc1Nc1nc(Nc2cc(C(N)=O)c(F)cc2C)ncc1C(F)(F)F [Compound I-76]  A375 cells (malignant melanoma)  0.101 to 0.5 µM
5  C=CC(=O)Nc1ccccc1Nc1nc(N[C@H]2CCN(C(=O)OC)C2)ncc1C(F)(F)F [Compound I-59]  A375 cells (malignant melanoma)  0.101 to 0.5 µM
6  C=CC(=O)Nc1ccccc1Nc1nc(N[C@H]2CCCN(C(C)=O)C2)ncc1C(F)(F)F [Compound I-10]  A375 cells (malignant melanoma)         < 0.1 µM

Could you now look at the following molecule, please?
Query: Given the molecule O=C(CCCl)Nc1ccccc1Nc1nc(N[C@H]2CCCN(C(=O)CO)C2)ncc1C(F)(F)F [Compound I-22] , what is its reported GI50?
Result: 0.101 to 0.5 µM
